Test system: common ragweed (Ambrosia artemisizfolia L., AMBEL)
Assay: Post-emerge test, greenhouse herbicide activity screening
Assay type: in vivo
Conditions: Rate 63 g ai/ha; rating scale 0-100 (0 no damage, 100 complete death); 14 days after application
Define the label as Y when Post-emerge Herbicidal Activity, phytotoxicity rating AMBEL is strictly less than 50 and as N in all remaining cases.

[
  {
    "molecule": "CCCOC(=O)C(Cl)Cc1c(OC)c(Cl)cc(F)c1-n1c(=O)cc(C(F)(F)F)n(C)c1=O (single isomer, unassigned) [14-6]",
    "class.assignment": "Y"
  },
  {
    "molecule": "CCCCOC(=O)C(Cl)Cc1c(OC)c(Cl)cc(F)c1-n1c(=O)cc(C(F)(F)F)n(C)c1=O (single isomer, unassigned) [14-9]",
    "class.assignment": "Y"
  },
  {
    "molecule": "COc1c(Cl)cc(F)c(-n2c(=O)cc(C(F)(F)F)n(C)c2=O)c1CC(Cl)C(=O)OCC(C)C (single isomer, unassigned) [14-14]",
    "class.assignment": "N"
  },
  {
    "molecule": "CCCCCCOC(=O)C(Cl)Cc1c(OC)c(Cl)cc(F)c1-n1c(=O)cc(C(F)(F)F)n(C)c1=O (single isomer, unassigned) [14-12]",
    "class.assignment": "N"
  },
  {
    "molecule": "CCCCCOC(=O)C(C)(Cl)Cc1c(OC)c(Cl)cc(F)c1-n1c(=O)cc(C(F)(F)F)n(C)c1=O (stereo not drawn) [14-37]",
    "class.assignment": "N"
  }
]
